TEST: Solubility test in low-polarity solvents (saturated solution, λmax, solubility, εC)
Assay type: physicochemical
CONDITION NOTES: tetradecane
PROPERTY MEASURED: εC (cm⁻¹)

CCCCC(CC)CN(CC(CC)CCCC)c1ccc(/N=N/c2snc(C)c2C#N)c(NC(=O)CC)c1 (stereo not shown): 7400

[A] CCCCC(CC)CN(CC(CC)CCCC)c1ccc(/N=N/c2snc(C)c2C#N)c(CC)c1 (stereo not shown)
[B] CCCCC(CC)CN(CC(CC)CCCC)c1ccc(/N=N/c2snc(CC)c2C#N)c(C)c1 (stereo not shown)
Response body: label of entry with the larger εC; valid values A , B . Return value: the label identifying the chosen record.
B

* * *

TEST: Solubility test in low-polarity solvents (saturated solution, λmax, solubility, εC)
Format: physicochemical
CONDITION NOTES: tetradecane; saturated solution
PROPERTY MEASURED: Solubility (%)

// known answers, use as guide
CCCCC(CC)CN(CC(CC)CCCC)c1ccc(/N=N/c2snc(C)c2C#N)c(CC)c1 (centres unmarked) [Dye 8]: 3.9
CCCCC(CC)CN(CC(CC)CCCC)c1ccc(/N=N/c2snc(C)c2C#N)c(NC(=O)CC)c1 (centres unmarked) [Dye 9]: 8.5
CCCCC(CC)CN(CC(CC)CCCC)c1ccc(/N=N/c2snc(CC)c2C#N)c(C)c1 (centres unmarked) [Dye 4]: 6.8
CCCCC(CC)CN(CC(CC)CCCC)c1ccc(N=Nc2snc(C)c2C#N)c(NC(C)=O)c1 (centres unmarked) [Dye 2]: 5.4

[1] CCCCC(CC)CN(CC(CC)CCCC)c1ccc(/N=N/c2sc(C(=O)OCC)c(C)c2C(=O)OCC)c(NC(=O)CC)c1 (centres unmarked) [Dye 7]
[2] CCCCC(CC)CNc1ccc(NCC(CC)CCCC)c2c1C(=O)c1ccccc1C2=O (centres unmarked) [Comparative dye 2, reference compound]
[3] CCCCC(CC)CN(CC(CC)CCCC)c1ccc(N=Nc2snc(CC)c2C#N)c(NC(C)=O)c1 (centres unmarked) [Dye 10]
Please list these compounds in decreasing order of Solubility. Respond with an ordered listing of the labels, as requested.
3, 1, 2

* * *

TEST: Solubility test in low-polarity solvents (saturated solution, λmax, solubility, εC)
Type: physicochemical
CONDITION NOTES: decalin; saturated solution
PROPERTY MEASURED: Solubility (%)

// known answers, use as guide
CCCCC(CC)CN(CC(CC)CCCC)c1ccc(/N=N/c2snc(C)c2C#N)c(NC(=O)CC)c1 (stereo not drawn): 9.1
CCCCC(CC)CN(CC(CC)CCCC)c1ccc(/N=N/c2snc(CC)c2C#N)c(C)c1 (stereo not drawn): 6.5

[a] CCCCC(CC)CN(CC(CC)CCCC)c1ccc(N=Nc2snc(CC)c2C#N)c(NC(C)=O)c1 (stereo not drawn)
[b] CCCCC(CC)CNc1ccc(NCC(CC)CCCC)c2c1C(=O)c1ccccc1C2=O (stereo not drawn) [Comparative dye 2, reference compound]
[c] CCCCC(CC)CN(CC(CC)CCCC)c1ccc(N=Nc2snc(C)c2C#N)c(NC(C)=O)c1 (stereo not drawn)
Please list these molecules in decreasing order of Solubility. Respond with an ordered listing of the labels, as requested.
c, b, a

* * *

TEST: Solubility test in low-polarity solvents (saturated solution, λmax, solubility, εC)
Format: physicochemical
CONDITION NOTES: tetradecane solution
PROPERTY MEASURED: λmax (absorption-maximum wavelength) (nm)

CCCCC(CC)CNc1ccc(NCC(CC)CCCC)c2c1C(=O)c1ccccc1C2=O (stereo not shown) [Comparative dye 2, reference compound]: 651
CCCCC(CC)CN(CC(CC)CCCC)c1ccc(/N=N/c2snc(C)c2C#N)c(NC(=O)CC)c1 (stereo not shown): 544
CCCCC(CC)CN(CC(CC)CCCC)c1ccc(/N=N/c2sc(C(=O)OCC)c(C)c2C(=O)OCC)c(NC(=O)CC)c1 (stereo not shown): 538
CCCCC(CC)CN(CC(CC)CCCC)c1ccc(N=Nc2snc(C)c2C#N)c(NC(C)=O)c1 (stereo not shown): 545
